As shown below, each of these compounds has a reported IC50 at 24 h value.
test: MTT cytotoxicity towards normal breast cells
Type: cell-based
particulars: human, MCF-10A normal breast cells

compound	IC50 at 24 h
C[C@@H]1CC[C@H]2[C@@H](C)C(OC(=O)CCCN3C(=O)C(=O)c4ccccc43)O[C@@H]3O[C@@]4(C)CC[C@@H]1[C@]32OO4 (stereo partly drawn)	> 100 µM
COc1cccc2c1C(=O)c1c(O)c3c(c(O)c1C2=O)C[C@@](O)(C(=O)CO)C[C@@H]3O[C@H]1C[C@H](N)[C@H](O)[C@H](C)O1 [ADR, Adriamycin, reference compound]	68.8 µM

Next:
Exercise: What value of IC50 at 24 h has been reported for the following compound? COc1ccc2c(c1)C(=O)C(=O)N2CCCC(=O)OC1O[C@@H]2O[C@@]3(C)CC[C@H]4[C@H](C)CC[C@@H]([C@H]1C)[C@@]24OO3 (stereo partly drawn)
Solution: > 100 µM

* * *

As shown below, each of these molecules has a reported IC50 value.
System: MDA-MB-231/ADR breast cancer cells
test: MTT antiproliferative assay, MDA-MB-231/ADR
Assay type: cell-based
particulars: Homo sapiens, MDA-MB-231, 24 h, read-out: Antiproliferative activity (IC50) MDA-MB-231/ADR

For orientation, consider the following solved cases.
molecule	IC50
COc1cccc2c1C(=O)c1c(O)c3c(c(O)c1C2=O)C[C@@](O)(C(=O)CO)C[C@@H]3O[C@H]1C[C@H](N)[C@H](O)[C@H](C)O1 [ADR, Adriamycin, reference compound]	> 100 µM
CCON=C1C(=O)N(CCCC(=O)OC2O[C@@H]3O[C@@]4(C)CC[C@H]5[C@H](C)CC[C@@H]([C@H]2C)[C@@]35OO4)c2ccc(OC)cc21 (stereo partly drawn)	> 100 µM

Next:
Exercise: What value of IC50 has been reported for the following molecule? CCON=C1C(=O)N(CCCC(=O)OC2O[C@@H]3O[C@@]4(C)CC[C@H]5[C@H](C)CC[C@@H]([C@H]2C)[C@@]35OO4)c2ccc(C)cc21 (stereo partly drawn)
Solution: > 100 µM

Data credit: paper PMC9926453
